molecular target: human SOS1 (nucleotide exchange of K-Ras^G12C) (Homo sapiens); test: Biochemical assay 2: K-Ras^G12C activation assay by hSOS1 at high GTP concentration (HTRF); settings: E-notation values; unit inferred; 50 μM GTP; read-out: Assay 2 (KRAS-Activation, high GTP) IC50
measureName: IC50 (nM)
Only the number, expressed in nM, is required.

>>> print(df.to_string())
                                   molecule                                    system  resultvalue
0  Cc1nc(NC(C)c2ccc(Br)s2)c2cc(N3CCN(Cc4ccccc4)C(=O)C3)ccc2n1 (centres unmarked) [Example 441]  human SOS1 (nucleotide exchange of K-Ras^G12C) (Homo sapiens)         3950

Now look at this entry.
Sample Cc1nc(NC(C)c2ccc(-c3ccccc3CN(C)C)s2)c2cc(N3CCCC3)ccc2n1 (centres unmarked) [Example 415] — what was its IC50? 88.5

----------
This section presents compounds with their documented IC50 values.
target: K-Ras^G12C : hSOS1 interaction (Homo sapiens); assay: Biochemical assay 1: K-Ras^G12C interaction assay with hSOS1 (HTRF); format: binding; conditions: read-out: Assay 1 (KRAS-SOS Interaction) activity expressed as IC50
Kindly provide the numeric value in µM only, without the unit symbol.

Sample records with IC50:
                                   compound                                    system  measurename  resultvalue
0  COc1cc2nc(C)nc(NC(C)c3ccc(C4=CCOCC4)s3)c2cc1OC (stereo not shown) [Example 235]  K-Ras^G12C : hSOS1 interaction (Homo sapiens)         IC50         5.47
1  COc1cc2nc(C)nc(N[C@H](C)c3ccc(Br)cc3)c2cc1OC [Example 187]  K-Ras^G12C : hSOS1 interaction (Homo sapiens)         IC50        0.476
2  COc1cc2nc(C)nc(NC(C)c3ccc(-c4cccc5sc(C(N)=O)c(N)c45)s3)c2cc1OC (stereo not shown) [Example 278]  K-Ras^G12C : hSOS1 interaction (Homo sapiens)         IC50         12.5

Now let's try a different one.
For the compound shown here, COCc1ccccc1-c1ccc([C@H](C)Nc2nc(C)nc3cc(OC)c(OC)cc23)s1 (racemic) [Example 50] , give the reported IC50. 9.85

----------
Overview of recorded log10(IC50) for various compounds
molecular target: human SOS1 (nucleotide exchange of K-Ras^G12C) (Homo sapiens); test: Biochemical assay 2: K-Ras^G12C activation assay by hSOS1 at high GTP concentration (HTRF); details: high GTP; read-out: Assay 2 (KRAS-Activation by SOS high GTP) activity expressed as IC50
A value of 2 here means IC50 of 100 in nM, since values are log10.

// worked examples, log10(IC50) included
>>> print(df.to_string())
                                   compound  resultvalue
0  COc1cc2nc(C)nc(NC(C)c3ccc(-c4ccccc4CN4CC[C@H](F)C4)s3)c2cc1OC (some centres unmarked) [Example 211]         2.47
1  COc1cc2nc(C)nc(NC(C)c3ccc(-c4ccccc4CCNC(=O)OC(C)(C)C)s3)c2cc1OC (centres unmarked) [Example 352]         4.09
2  COc1cc2nc(C)nc(N[C@@H](C)c3ccc(-c4ccc(CO)s4)s3)c2cc1OC (racemic) [Example 52]         3.74
3  CCC/C=C/c1cccc([C@@H](C)Nc2nc(C)nc3cc(OC)c(OC)cc23)c1 [Example 89]         3.43
4  COc1cc2nc(C)nc(N[C@@H](C)c3ccc(-c4cc5ccccc5n4C)s3)c2cc1OC (racemic) [Example 155]         3.17

Looking for the measured log10(IC50) of COc1cc2nc(C)nc(NC(C)c3cc(Br)cc4c3OCC4)c2cc1OC (centres unmarked) [Example 225] , can you help? 3.36

Field request: log10(IC50) | item: COc1cc2nc(C)nc(NC(C)c3ccc(-c4ccccc4CN4CCC(N(C)C)C4)s3)c2cc1OC (centres unmarked) [Example 238] 2.34

Reported log10(IC50) for COc1cc2nc(C)nc(N[C@H](C)c3cccc(-c4ccc5c(c4)CCO5)c3)c2cc1OC [Example 113] : what is it? 2.92

----------
target: human SOS1 (loading of human K-Ras^G12C-GDP with fluorescent GTP-analog) (Homo sapiens); test: Biochemical assay 3: K-Ras^G12C activation assay by hSOS1 (HTRF); conditions: E-notation values; unit inferred; read-out: Assay 3 (KRAS-Activation) IC50
measureName: IC50 (nM)
Record the value in nM, omitting the unit from your answer.

Check out these entries, answers already filled in.
>>> print(df.to_string())
                                   compound                                    system  resultvalue
0  COc1cc2nc(C)nc(NC(C)c3ccc(-c4ccccc4CN(C)CC#N)s3)c2cc1OC (stereo not shown)  human SOS1 (loading of human K-Ras^G12C-GDP with fluorescent GTP-analog) (Homo sapiens)          287
1  COc1cc2nc(C)nc(NC(C)c3ccc(-c4ccc(Cl)cc4CN)s3)c2cc1OC (stereo not shown)  human SOS1 (loading of human K-Ras^G12C-GDP with fluorescent GTP-analog) (Homo sapiens)         72.1
2  COc1cc2nc(C)nc(NC(C)c3ccc(-c4ccc(C(F)(F)F)cc4C)s3)c2cc1OC (stereo not shown)  human SOS1 (loading of human K-Ras^G12C-GDP with fluorescent GTP-analog) (Homo sapiens)        10100

From here, focus on the item given below.
Find the recorded IC50 belonging to COc1cc2nc(C)nc(NC(C)c3ccc(-c4ccc(C)cc4CN(C)C)s3)c2cc1OC (stereo not shown) and report it. 45.1

----------
molecular target: K-Ras^G12C : hSOS1 interaction (Homo sapiens, UniProt Q07889); assay: Biochemical assay 1: K-Ras^G12C interaction assay with hSOS1 (HTRF); format: binding; conditions: read-out: Assay 1 (KRAS-SOS Interaction) activity expressed as IC50
measureName: pIC50
Please express pIC50 as -log10 of the molar concentration.

Sample records with pIC50:
>>> df
                                   molecule                                    system  resultvalue
0  COc1cc2nc(C)nc(N[C@@H](C)c3ccc(-c4cnc(N)nc4)s3)c2cc1OC (racemic) [Example 131]  K-Ras^G12C : hSOS1 interaction (Homo sapiens, UniProt Q07889)         5.65
1  COc1cc2nc(C)nc(N[C@H](C)c3cccc(-c4ccc(O)nc4)c3)c2cc1OC [Example 68]  K-Ras^G12C : hSOS1 interaction (Homo sapiens, UniProt Q07889)         6.86
2  COc1cc2nc(C)nc(N[C@H](C)c3ccc(-c4ccccc4CCN)s3)c2cc1OC (stereo in doubt) [Example 357]  K-Ras^G12C : hSOS1 interaction (Homo sapiens, UniProt Q07889)         7.29
3  Cc1nc(N[C@H](C)c2cccc3ccccc23)c2ccccc2n1 [Example 186]  K-Ras^G12C : hSOS1 interaction (Homo sapiens, UniProt Q07889)         5.00
4  COc1cc2nc(C)nc(N[C@H](C)c3cccc(C)c3)c2cc1OC [Example 190]  K-Ras^G12C : hSOS1 interaction (Homo sapiens, UniProt Q07889)         6.76
5  COc1cc2nc(C)nc(N[C@H](C)c3cccc(-c4ccc5c(ccn5C)c4)c3)c2cc1OC [Example 105]  K-Ras^G12C : hSOS1 interaction (Homo sapiens, UniProt Q07889)         5.62
6  COc1cc2nc(C)nc(N[C@@H](C)c3ccc(-c4cccc(S(N)(=O)=O)c4)s3)c2cc1OC (racemic) [Example 130]  K-Ras^G12C : hSOS1 interaction (Homo sapiens, UniProt Q07889)         5.46
7  COc1cc2nc(C)nc(NC(C)c3ccc4c(c3)CCCC4)c2cc1OC (centres unmarked) [Example 25]  K-Ras^G12C : hSOS1 interaction (Homo sapiens, UniProt Q07889)         6.27

Consider the additional molecule presented here.
Fill blank: measured pIC50 of the molecule COc1cc2nc(C)nc(N[C@H](C)c3cccc(-c4cccc(-c5nnc(C)o5)c4)c3)c2cc1OC [Example 55] is ____. 6.17

----------
molecular target: human SOS1 (loading of human K-Ras^G12C-GDP with fluorescent GTP-analog) (Homo sapiens); test: Biochemical assay 3: K-Ras^G12C activation assay by hSOS1 (HTRF); details: no GTP; read-out: Assay 3 (KRAS-Activation by SOS no GTP) activity expressed as IC50
Response field label: string, one of rule met (IC50 strictly below 1000 nM) or rule not met.

>>> df
                                   molecule                                    system  labelclass
0  CNCc1ccccc1-c1ccc(C(C)Nc2nc(C)nc3cc(OC)c(OC)cc23)s1 (stereo not shown)  human SOS1 (loading of human K-Ras^G12C-GDP with fluorescent GTP-analog) (Homo sapiens)    rule met

In the record for COc1cc2nc(C)nc(NC(C)c3ccc(-c4ccccc4CN4CCC(C(N)=O)CC4)s3)c2cc1OC (stereo not shown) , is IC50 less than 1000 nM? rule met

Say whether its IC50 is strictly beneath 1000 nM. Entry: COc1cc2nc(C)nc(N[C@H](C)c3cccc(Br)c3)c2cc1OCc1ccccc1 rule not met
